The origin of these recorded values is the supplement of paper PMC7125110.

B1: glmS ribozyme (parent)
chain: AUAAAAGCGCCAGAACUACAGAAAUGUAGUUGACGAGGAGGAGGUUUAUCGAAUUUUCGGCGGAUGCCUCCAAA

variants of: B1; test: self-cleavage kobs at 160 uM GlcN6P; higher = faster cleavage; RNA array; conditions: with glucosamine-6-phosphate
Fewer inactive variants are shown than the library holds.
parameter: self-cleavage kobs at 160 uM GlcN6P (s⁻¹)
Express the result in s⁻¹ but write the number alone.

These solved cases illustrate the format of a correct answer.
A15G A42U = 2.77e-05
C16A U31G = 4.15e-05
U31G A53G = 0.000661
A14G C16U G43A C67G = 0.000207
A15U U65A = 6.26e-05
C8G G13C U30G C68G C70G = 0.000998

Supply self-cleavage kobs at 160 uM GlcN6P value. Item: G41A C71A
5.23e-05

Supply self-cleavage kobs at 160 uM GlcN6P value. Item: U55A C71U
0.00212

Supply self-cleavage kobs at 160 uM GlcN6P value. Item: C67U C68U
3.97e-05

Supply self-cleavage kobs at 160 uM GlcN6P value. Item: U30G G40A
0.000128
